FYI, the data here is from PubChem BioAssay (Tox21).

EXPERIMENTAL DETAILS: qHTS assay to identify small molecule agonists of the hypoxia (HIF-1) signaling pathway - cell viability counter screen (AID 1224844); note: nearly all actives have a fitted effect of over 50% in size; note: potency is the fitted concentration of half-maximal effect
TEST PARAMETERS: HRE-bla ME-180 viability, CellTiter-Glo luminescence, 17 h; series mostly up to 76.8 µM
Inconclusive results are not listed. Active and inactive are the calls of the source. Calls come from the whole dose curve.
REPORTED PROPERTY: Potency

Answered cases to consult:
>  <MOLECULE>
Cc1oc(-c2ccccc2)nc1CCC(=O)c1ccc(CC2SC(=O)NC2=O)cc1 (centres undefined)

>  <REPORTED PROPERTY>
Potency

>  <MEASURED RESULT>
inactive

$$$$
>  <MOLECULE>
CC(C)(C)CC(C)(C)c1ccc(O)c(Cc2ccc(Cl)cc2Cl)c1

>  <REPORTED PROPERTY>
Potency

>  <MEASURED RESULT>
9.52 µM (active)

$$$$
>  <MOLECULE>
CSc1ccc(/C=C2/C(C)=C(CC(=O)O)c3cc(F)ccc32)cc1

>  <REPORTED PROPERTY>
Potency

>  <MEASURED RESULT>
10.7 µM (active)

$$$$
>  <MOLECULE>
CCCCCCCCCCCCc1ccc(O)cc1

>  <REPORTED PROPERTY>
Potency

>  <MEASURED RESULT>
24.5 µM (active)

$$$$

What value of Potency has been recorded for this entry: "CN(C)[C@@H]1C(=O)C(C(N)=O)=C(O)[C@@]2(O)C(=O)C3=C(O)c4c(O)ccc(Cl)c4[C@@H](O)[C@H]3C[C@@H]12"
inactive

What measured Potency goes with "C=C(C)C(=O)OCC[N+](C)(C)C" ?
inactive

Return reported Potency; argument: CCC(C)(C)C1CCCCC1OC(C)=O (centres undefined)
inactive

Any idea what its Potency is? The molecule is "CC1=C(/C=C/C(C)=C/C=C/C(C)=C/C=O)C(C)(C)CCC1"
30.7 µM (active)

Can you look up the measured Potency of "CCC(N)(CO)CO" for me?
inactive

---

EXPERIMENTAL TARGET: Cytochrome P450 2C9 (Homo sapiens) (UniProt P11712)
Sequence (P11712 whole entry, looked up): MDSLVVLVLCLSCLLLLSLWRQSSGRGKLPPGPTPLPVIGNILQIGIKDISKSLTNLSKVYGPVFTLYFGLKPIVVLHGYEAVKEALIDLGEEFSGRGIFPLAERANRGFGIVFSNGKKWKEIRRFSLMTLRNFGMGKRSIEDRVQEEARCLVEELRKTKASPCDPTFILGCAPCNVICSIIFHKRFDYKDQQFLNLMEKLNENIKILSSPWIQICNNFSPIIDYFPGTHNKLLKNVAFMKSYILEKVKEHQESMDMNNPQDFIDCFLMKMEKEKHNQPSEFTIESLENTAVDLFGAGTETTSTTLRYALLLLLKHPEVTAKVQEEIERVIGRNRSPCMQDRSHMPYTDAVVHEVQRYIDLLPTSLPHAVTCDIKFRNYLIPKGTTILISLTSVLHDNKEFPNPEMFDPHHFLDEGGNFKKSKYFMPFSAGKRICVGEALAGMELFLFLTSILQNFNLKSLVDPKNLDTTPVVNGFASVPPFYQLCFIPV
EXPERIMENTAL DETAILS: Cytochrome P450 Family 2 Subfamily C Member 9 (CYP2C9) small molecule antagonists: luciferase reporter qHTS assay (AID 1671198); note: nearly all actives have a fitted effect of over 50% in size
TEST PARAMETERS: P450-Glo CYP2C9 enzyme assay, luciferin luminescence; series mostly up to 53 µM
Results filed as inconclusive are left out. Calls of active or inactive are those of the source. Calls come from the whole dose curve; as a rule, active = well fitted inhibition curve with a large enough effect in the repeat runs; inconclusive = weak or mixed curves; inactive = no such curve, though single readings can be large or run the other way.
Choose the fitting class; nothing outside active, inactive is accepted.

Hello, I am checking results. What call was entered for "CCc1cc(SCc2sc(-c3ccc(C(F)(F)F)cc3)nc2CN2CCN(c3ccc(OC)cc3)CC2)ccc1OCC(=O)O" ?
active

What classification did "Cc1onc(-c2c(Cl)cccc2Cl)c1C(=O)N[C@@H]1C(=O)N2[C@@H]1SC(C)(C)[C@@H]2C(=O)O" end up with in this test?
active

Please state the recorded outcome for this compound: "Nc1ccccc1O"
active

Hi, sorry to bother you, what did the test record for "Nc1nc2ccccc2n1Cc1ccc(F)cc1" ?
inactive

Answer briefly: the call reported for "CCOC(=O)O[C@]1(C(=O)OCCl)CC[C@H]2[C@@H]3CCC4=CC(=O)C=C[C@]4(C)[C@H]3[C@@H](O)C[C@@]21C" in this assay.
inactive

Could you kindly confirm the outcome this assay logged for "Nc1ccc2cc(S(=O)(=O)O)cc(O)c2c1N=Nc1ccccc1C(F)(F)F" ?
active

What did this assay record as the result for C=C(C)C(=O)OCC(O)COc1ccc(C(C)(C)c2ccc(OCC(O)COC(=O)C(=C)C)cc2)cc1 (stereo unspecified) ?
active

Dear all, I need the recorded test outcome for "COc1ccc(C(=O)/C(Br)=C\C(=O)O)cc1" , thank you.
active

Kindly provide the recorded test outcome for the following compound: "C[n+]1ccn(Cc2ccccc2)c1"
inactive

Entry "CN(C/C=C/C#CC(C)(C)C)Cc1cccc2ccccc12" : call = ?
active

Hi team, can someone confirm the assay call for "C=CC(=O)OCC(CO)(COCC(COC(=O)C=C)(COC(=O)C=C)COC(=O)C=C)COC(=O)C=C" ?
active

Which result was noted for this compound in the test: "Cc1cc(O)c(C(C)(C)C)cc1C(C)(C)C"
active

// outcome(item) with item = "Oc1cccc(-c2c3nc(c(-c4cccc(O)c4)c4ccc([nH]4)c(-c4cccc(O)c4)c4nc(c(-c5cccc(O)c5)c5ccc2[nH]5)CC4)C=C3)c1"
active

Tell me the assay call for "CSc1ccc(/C=C2/C(C)=C(CC(=O)O)c3cc(F)ccc32)cc1" please.
active

Lab log entry: "COc1ccc(CN2CCN(C(c3ccc(F)cc3)c3ccc(F)cc3)CC2)c(OC)c1OC" — outcome as called in the assay?
active

Just curious, what result did "CCCCCCCCCCCCCCCS(=O)(=O)Oc1ccccc1" get here?
active

Which outcome was assigned to "CCCCN1CCCC[C@H]1C(=O)Nc1c(C)cccc1C" in this test?
inactive

Per the records of this test, what outcome belongs to "Cc1cccc(S(=O)(=O)O)c1C" ?
inactive

For this compound, state the assay outcome: "CCCC(=O)OC[C@@H](OC(=O)CCC)[C@@H](OC(=O)CCC)[C@H](Cn1c2nc(=O)[nH]c(=O)c-2nc2cc(C)c(C)cc21)OC(=O)CCC"
active

Per the assay record, what outcome was assigned to "NC(=O)C1(N2CCCCC2)CCN(CCCN2c3ccccc3CCc3ccc(Cl)cc32)CC1" ?
active

Check the results log: what was the call for "CN(C)CCCOC1(Cc2ccccc2)CCCCCC1" ?
inactive

---

EXPERIMENTAL DETAILS: qHTS assay to identify small molecule agonists of the farnesoid-X-receptor (FXR) signaling pathway - cell viability counter screen (AID 743218); note: nearly all actives have a fitted effect of over 45% in size
TEST PARAMETERS: FXR-bla HEK293T viability, CellTiter-Glo luminescence, 16 h; series mostly up to 62.6 µM
Records with an inconclusive call do not appear. Active and inactive are the calls of the source. Calls come from the whole dose curve; as a rule, active = well fitted cell-killing curve with a large enough effect in the repeat runs; inconclusive = weak or mixed curves, or effect the other way; inactive = no such curve, though single readings can be large or run the other way.
Give one outcome, nothing more. List: active, inactive

# lookup: test call for "C[C@H]1[C@H]2CC[C@H]3[C@@H]4CC=C5C[C@@H](N(C)C)CC[C@]5(C)[C@H]4CC[C@]23CN1C"
inactive

Tell me the recorded outcome of this test for "Cc1cc(=O)oc2cc(N(C)C)ccc12" .
inactive

Lab log entry: "COc1cc(-c2nc(NC(=O)c3cc4cc(C)cc(C)c4n3CC(=O)O)sc2CCC2CCCCC2)c(OC)cc1Cl" — outcome as called in the assay?
active

What did the test return for "C=CC(=O)OCCn1c(=O)n(CCOC(=O)C=C)c(=O)n(CCOC(=O)C=C)c1=O" ?
active

What did the test return for "[Cl][Bi]([Cl])([c]1ccccc1)([c]1ccccc1)[c]1ccccc1" ?
active

Per the records of this test, what outcome belongs to CCCCC(CC)CN=C(N)NC(N)=NCCCCCCN=C(N)NC(N)=NCC(CC)CCCC (stereo not given) ?
active

Give the logged outcome of this assay for the following compound: "Clc1ccccc1C(c1ccccc1)(c1ccccc1)n1ccnc1"
active

State the result this test recorded for "N#CC1(c2ccc(F)cc2)CCC(=O)CC1" .
inactive

Lab log entry: CCN(CC)CCCC(C)Nc1c2ccc(Cl)cc2nc2ccc(OC)cc12 (stereo not given) — outcome as called in the assay?
active

Which result was noted for this compound in the test: "O=[N+]([O-])c1ccccc1Nc1ccccc1"
inactive

---

EXPERIMENTAL DETAILS: qHTS RealTime-Glo MT Cell Viability Assay in HEK293 cells - 32 hour (AID 1224868); note: nearly all actives have a fitted effect of over 50% in size
TEST PARAMETERS: RealTime-Glo luminescence; series mostly up to 76.8 µM
Results filed as inconclusive are left out. Activity calls are given as the source filed them. The call rests on the fitted dose curve; in most records, active means well fitted cell-killing curve with a large enough effect in the repeat runs; inconclusive means weak or mixed curves, or effect the other way; inactive means flat fitted curve, though single readings scatter.
Parameter call: string, one of y (active), n (inactive)

So what was the verdict on "Cc1ccc2oc(CN(Cc3ccccc3)C(=O)Nc3c(F)cc(F)cc3F)c(-c3ccc(Cl)cc3)c2c1" in this test?
n

State the result this test recorded for CCOc1nc2cccc(C(=O)OC(C)OC(=O)OC3CCCCC3)c2n1Cc1ccc(-c2ccccc2-c2nn[nH]n2)cc1 (stereo not given) .
y

Just curious, what result did "O=C1C=CC(=O)N1" get here?
y

Could you please tell me the result logged for "CCCCCCCC/C=C/CCCCCCCC1=NCCN1CCO" in this assay?
y

Per the records of this test, what outcome belongs to Clc1ccc(C(Cn2ccnc2)OCc2ccc(Sc3ccccc3)cc2)c(Cl)c1 (stereo not given) ?
n

---

EXPERIMENTAL DETAILS: qHTS assay to identify small molecule antagonists of the peroxisome proliferator-activated receptor delta (PPARd) signaling pathway - cell viability counter screen (AID 743213); note: nearly all actives have a fitted effect of over 50% in size
TEST PARAMETERS: PPARd-bla HEK293H viability, CellTiter-Glo luminescence, 17 h; series mostly up to 62 µM
Records with an inconclusive call do not appear. Calls of active or inactive are those of the source. Calls come from the whole dose curve; as a rule, active = well fitted cell-killing curve with a large enough effect in the repeat runs; inconclusive = weak or mixed curves; inactive = no such curve, though single readings can be large or run the other way.
Select the matching outcome among yes (1) for active, no (0) for inactive

What was the test verdict on "O=C1CCCCCN1SSN1CCCCCC1=O" ?
no (0)

Answer briefly: the call reported for "CCOC(=O)c1nc(C(Cl)(Cl)Cl)n(-c2ccc(Cl)cc2Cl)n1" in this assay.
yes (1)

Dear all, I need the recorded test outcome for Cc1c(C)c2c(c(C)c1O)CCC(C)(COc1ccc(CC3SC(=O)NC3=O)cc1)O2 (stereo unspecified) , thank you.
no (0)

Assay outcome for "c1ccc(CSCc2ccccc2)cc1" : what was it?
no (0)

What is the recorded call for this compound in the test? "O=C(O)c1ccc(Cl)c(Cl)c1"
no (0)

Answer briefly: the call reported for CC(C)OC(=O)c1cc2c(OCC(O)CNC(C)(C)C)cccc2[nH]1 (stereo unspecified) in this assay.
no (0)

Write down the call the test reported for this compound. Item: CCCC(C)c1ccccc1O (stereo unspecified)
no (0)

Test call for this compound, please: "CN(C)c1ccc(C2(c3ccc(N(C)C)cc3)OC(=O)c3cc(N(C)C)ccc32)cc1"
no (0)

Look up the recorded call for "CCOC(=O)O[C@H](C)OC(=O)c1ccc2c(c1)cc(C(=O)NC1CCN(C(C)C)CC1)n2Cc1cc(-c2ccc(Cl)s2)on1" in this test.
yes (1)

Recorded test call requested for "CC/C(=C(\c1ccc(O)cc1)c1ccc(OCCN(C)C)cc1)c1ccccc1"
yes (1)

Identify the outcome logged in this assay for the compound shown: "C=C(C)C(=O)OCC[N+](C)(C)C"
no (0)
